- Tgt: recombinant PRL-1 (Homo sapiens, UniProt Q93096)
- Construct: 6xHis (N, cleaved yes); made in house; host or cells: E. coli One Shot BL21 Star
- Sequence (Q93096 whole entry): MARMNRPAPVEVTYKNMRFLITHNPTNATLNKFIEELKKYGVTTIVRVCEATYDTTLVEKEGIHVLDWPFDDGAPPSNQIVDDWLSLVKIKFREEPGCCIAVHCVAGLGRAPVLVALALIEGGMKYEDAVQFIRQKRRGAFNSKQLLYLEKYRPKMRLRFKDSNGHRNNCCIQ
- Measurement notes: In vitro phosphatase assay (DiFMUP hydrolysis), PRL-1
- Type: biochemical
- Condition notes: FDA-approved drug screen; compared to DMSO
Outcome measure: % Phosphatase Activity (compared to DMSO) PRL-1 (%)

{"Compound": "COC(=O)Nc1nc2cc(C(=O)c3ccc(F)cc3)ccc2[nH]1", "Recorded value": 91}
{"Compound": "CN1CCC[C@@H]1Cc1c[nH]c2ccc(CCS(=O)(=O)c3ccccc3)cc12", "Recorded value": 109}
{"Compound": "O=C(NC1CCN(CCCCC2(C(=O)NCC(F)(F)F)c3ccccc3-c3ccccc32)CC1)c1ccccc1-c1ccc(C(F)(F)F)cc1 [Lomitapide]", "Recorded value": 124}
{"Compound": "O=C1CCc2ccc(OCCCCN3CCN(c4cccc(Cl)c4Cl)CC3)cc2N1", "Recorded value": 100}

###

- Tgt: recombinant PRL-2 (Homo sapiens)
- Construct: 6xHis (N, cleaved yes); made in house; host or cells: E. coli One Shot BL21 Star
- Measurement notes: In vitro phosphatase assay (DiFMUP hydrolysis), PRL-2
- Assay type: biochemical
- Condition notes: FDA-approved drug screen; compared to DMSO
Structures can show the parent of a compound that is named as a salt.
Outcome measure: % Phosphatase Activity (compared to DMSO) PRL-2 (%)

{"Compound": "C[C@@H](CN1CC(=O)NC(=O)C1)N1CC(=O)NC(=O)C1.Cl [Dexrazoxane HCl (ICRF-187, ADR-529)]", "Recorded value": 92}
{"Compound": "CCC[S+]([O-])c1ccc2[nH]c(NC(=O)OC)nc2c1 (stereo not shown) [Albendazole Oxide]", "Recorded value": 100}
{"Compound": "O=c1ccc2ccccc2o1 [Coumarin]", "Recorded value": 98}
{"Compound": "CC[C@@H](C(N)=O)N1CCCC1=O [Levetiracetam]", "Recorded value": 90}
{"Compound": "CCN1CC(CCN2CCOCC2)C(c2ccccc2)(c2ccccc2)C1=O.Cl (stereo not shown) [Doxapram HCl]", "Recorded value": 98}
{"Compound": "CCOC(=O)[C@H](CCc1ccccc1)N[C@@H](C)C(=O)N1CCC[C@H]1C(=O)O [Enalapril Maleate]", "Recorded value": 92}
{"Compound": "CC(C)(Oc1ccc(Cl)cc1)C(=O)O [Clofibric Acid]", "Recorded value": 95}
{"Compound": "CN1CCN(c2c(F)cc3c(=O)c(C(=O)O)cn4c3c2OCN4C)CC1 [Marbofloxacin]", "Recorded value": 386}
{"Compound": "CCOC(=O)C1=C[C@@H](OC(CC)CC)[C@H](NC(C)=O)[C@@H](N)C1 [Oseltamivir Phosphate]", "Recorded value": 102}
{"Compound": "CC(=O)OCC(=O)[C@@]12N=C(C)O[C@@H]1C[C@H]1[C@@H]3CCC4=CC(=O)C=C[C@]4(C)[C@H]3[C@@H](O)C[C@@]12C [Deflazacort]", "Recorded value": 102}
{"Compound": "NCCCCCC(=O)O [(6-)ε-Aminocaproic acid]", "Recorded value": 115}
{"Compound": "C[C@H](Nc1ncnc2nc[nH]c12)c1cc2cccc(Cl)c2c(=O)n1-c1ccccc1 [IPI-145 (INK1197)]", "Recorded value": 88}
{"Compound": "Cc1c(C(=O)NN2CCCCC2)nn(-c2ccc(Cl)cc2Cl)c1-c1ccc(Cl)cc1 [Rimonabant]", "Recorded value": 116}
{"Compound": "C[C@H]1C[C@H]2[C@@H]3CCC4=CC(=O)C=C[C@]4(C)[C@@]3(F)[C@@H](O)C[C@]2(C)[C@@]1(O)C(=O)CO [Betamethasone]", "Recorded value": 88}
{"Compound": "CC1(C)O[C@@H]2C[C@H]3[C@@H]4C[C@H](F)C5=CC(=O)C=C[C@]5(C)[C@@]4(F)[C@@H](O)C[C@]3(C)[C@]2(C(=O)CO)O1 [Fluocinolone Acetonide]", "Recorded value": 111}
{"Compound": "COCCCOc1cc(C[C@@H](C[C@H](N)[C@@H](O)C[C@H](C(=O)NCC(C)(C)C(N)=O)C(C)C)C(C)C)ccc1OC [Aliskiren Hemifumarate]", "Recorded value": 122}

###

- Tgt: recombinant PRL-3 (Homo sapiens, UniProt O75365)
- Construct: 6xHis (N, cleaved yes); made in house; host or cells: E. coli One Shot BL21 Star
- Sequence (O75365 whole entry): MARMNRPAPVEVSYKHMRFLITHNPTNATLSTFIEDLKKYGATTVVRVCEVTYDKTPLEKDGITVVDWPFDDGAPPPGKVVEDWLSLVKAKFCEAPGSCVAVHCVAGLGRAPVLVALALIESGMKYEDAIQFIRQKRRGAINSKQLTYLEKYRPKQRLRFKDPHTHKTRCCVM
- Measurement notes: In vitro phosphatase assay (DiFMUP hydrolysis), PRL-3
- Assay type: biochemical
- Condition notes: FDA-approved drug screen; compared to DMSO
Counter-ions that a name gives are not always drawn.
Overview of reported % Phosphatase Activity (compared to DMSO) PRL-3 across a group of molecules:
Outcome measure: % Phosphatase Activity (compared to DMSO) PRL-3 (%)

{"Molecule": "OC(CCCN1CCCCC1)(c1ccccc1)c1ccccc1 [Diphenidol HCl]", "Recorded value": 89}
{"Molecule": "CC(C)(C)NCC(O)c1ccc(O)c(CO)c1.CC(C)(C)NCC(O)c1ccc(O)c(CO)c1.O=S(=O)(O)O (centres unmarked) [Salbutamol Sulfate]", "Recorded value": 88}
{"Molecule": "Nc1nc(NC2CC2)c2ncn([C@H]3C=C[C@@H](CO)C3)c2n1 [Abacavir sulfate]", "Recorded value": 111}
{"Molecule": "CC[C@@H]1/C=C(\\C)C[C@H](C)C[C@H](OC)[C@H]2O[C@@](O)(C(=O)C(=O)N3CCCC[C@H]3C(=O)O[C@H](/C(C)=C/[C@@H]3CC[C@H](Cl)[C@H](OC)C3)[C@H](C)[C@@H](O)CC1=O)[C@H](C)C[C@@H]2OC", "Recorded value": 101}
{"Molecule": "C[C@@H]1[C@H](O)[C@@H](C)/C=C/C=C/C=C/C=C/C=C/C=C/C=C/[C@H](O[C@@H]2O[C@H](C)[C@@H](O)[C@H](N)[C@@H]2O)C[C@@H]2O[C@](O)(C[C@@H](O)C[C@@H](O)[C@H](O)CC[C@@H](O)C[C@@H](O)CC(=O)O[C@H]1C)C[C@H](O)[C@H]2C(=O)O", "Recorded value": 80}

###

- Tgt: recombinant PRL-2 (Homo sapiens)
- Construct: 6xHis (N, cleaved yes); made in house; host or cells: E. coli One Shot BL21 Star
- Sequence (Q12974 1-167): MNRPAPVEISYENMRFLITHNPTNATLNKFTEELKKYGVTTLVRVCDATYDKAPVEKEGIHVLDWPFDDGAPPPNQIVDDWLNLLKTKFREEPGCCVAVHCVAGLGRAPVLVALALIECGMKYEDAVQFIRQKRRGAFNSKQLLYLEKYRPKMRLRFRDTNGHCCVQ
- Measurement notes: In vitro phosphatase assay (DiFMUP hydrolysis), PRL-2;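 also: PRL-2 activity read as DiFMUP hydrolysis after 20 min at room temperature with drug, enzyme first pre-reduced at 4 °C for 20 min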
- Format: biochemical
- Condition notes: FDA-approved drug screen; compared to DMSO
Where a name gives a salt, the structure may show the parent alone.
Outcome measure: % Phosphatase Activity (compared to DMSO) PRL-2 (%)

{"Compound": "CN(C)Cc1c(C(=O)NCCOc2ccc(C(=O)NO)cc2)oc2ccccc12", "Tgt": "recombinant PRL-2 (Homo sapiens)", "Recorded value": 96}
{"Compound": "Nc1nc(Cl)nc2c1ncn2[C@H]1C[C@H](O)[C@@H](CO)O1", "Tgt": "recombinant PRL-2 (Homo sapiens)", "Recorded value": 93}
{"Compound": "NC(CO)C(=O)NNCc1ccc(O)c(O)c1O (stereo not shown) [Benserazide HCl]", "Tgt": "recombinant PRL-2 (Homo sapiens)", "Recorded value": 99}
{"Compound": "CCCCCCCCCC(=O)O[C@H]1CC[C@H]2[C@@H]3CCC4=CC(=O)CC[C@@H]4[C@H]3CC[C@]12C [Nandrolone decanoate]", "Tgt": "recombinant PRL-2 (Homo sapiens)", "Recorded value": 94}
{"Compound": "COc1ccc(C(=O)N2CCCC2=O)cc1", "Tgt": "recombinant PRL-2 (Homo sapiens)", "Recorded value": 104}
{"Compound": "CCC(=O)OCC(=O)[C@@]1(OC(=O)CC)[C@@H](C)C[C@H]2[C@@H]3CCC4=CC(=O)C=C[C@]4(C)[C@@]3(F)[C@@H](O)C[C@@]21C [Betamethasone Dipropionate]", "Tgt": "recombinant PRL-2 (Homo sapiens)", "Recorded value": 83}
{"Compound": "CC1(C)O[C@@H]2C[C@H]3[C@@H]4CCC5=CC(=O)CC[C@]5(C)[C@@]4(F)[C@@H](O)C[C@]3(C)[C@]2(C(=O)CCl)O1 [Halcinonide]", "Tgt": "recombinant PRL-2 (Homo sapiens)", "Recorded value": 105}

###

- Tgt: recombinant PRL-3 (Homo sapiens)
- Construct: 6xHis (N, cleaved yes); made in house; host or cells: E. coli One Shot BL21 Star
- Measurement notes: In vitro phosphatase assay (DiFMUP hydrolysis), PRL-3
- Type: biochemical
- Condition notes: FDA-approved drug screen; compared to DMSO
Where a name gives a salt, the structure may show the parent alone.
Values of % Phosphatase Activity (compared to DMSO) PRL-3 strictly less than 80% map to satisfied, and values of at least 80% map to not satisfied.

{"Compound": "CN(C)CCc1c[nH]c2ccc(Cn3cncn3)cc12 [Rizatriptan Benzoate]", "Cat": "not satisfied"}
{"Compound": "CO[C@@]12[C@H](COC(N)=O)C3=C(C(=O)C(C)=C(N)C3=O)N1C[C@@H]1N[C@@H]12", "Cat": "satisfied"}
{"Compound": "CC(=O)O[C@]1(C(C)=O)CC[C@H]2[C@@H]3C=C(Cl)C4=CC(=O)[C@@H]5C[C@@H]5[C@]4(C)[C@H]3CC[C@@]21C [Cyproterone Acetate]", "Cat": "not satisfied"}
{"Compound": "CCn1cc(C(=O)O)c(=O)c2cc(F)c(N3CCNC(C)C3)c(F)c21 (centres unmarked) [Lomefloxacin HCl]", "Cat": "not satisfied"}
{"Compound": "Nc1nc2c(ncn2CCC(CO)CO)c(=O)[nH]1", "Cat": "satisfied"}
{"Compound": "NC(CO)C(=O)NNCc1ccc(O)c(O)c1O (centres unmarked) [Benserazide HCl]", "Cat": "satisfied"}
{"Compound": "O=C(O)c1nn(Cc2ccc(Cl)cc2Cl)c2ccccc12", "Cat": "not satisfied"}
{"Compound": "CN1CCN(C(c2ccccc2)c2ccccc2)CC1.Cl.Cl [Cyclizine 2HCl]", "Cat": "satisfied"}
{"Compound": "O=C([O-])C(O)[C@H](O)[C@@H](O)[C@H](O)[C@H](O)CO.O=C([O-])C(O)[C@H](O)[C@@H](O)[C@H](O)[C@H](O)CO.[Ca+2] (some centres unmarked) [Calcium Gluceptate]", "Cat": "not satisfied"}
{"Compound": "NC12CC3CC(CC(C3)C1)C2 [Amantadine HCl]", "Cat": "not satisfied"}
{"Compound": "Cc1ccc(=O)n(-c2ccccc2)c1", "Cat": "not satisfied"}
{"Compound": "Cc1nccn1CC1CCc2c(c3ccccc3n2C)C1=O.Cl (centres unmarked) [Ondansetron HCl]", "Cat": "not satisfied"}
{"Compound": "Cn1c(=O)cc(N2CCC[C@@H](N)C2)n(Cc2ccccc2C#N)c1=O", "Cat": "not satisfied"}
{"Compound": "CCOC(=O)N1CCC(=C2c3ccc(Cl)cc3CCc3cccnc32)CC1", "Cat": "satisfied"}
